Test system: MILI (PIWIL2) piRISC loaded with piRNA #1 (26 nt);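 also: 1 nM active piRISC with 0.1 nM target library at 33 °C single turnover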
protocol: pre-steady-state target cleavage rate (min^-1); guide: piRNA #1 5'p-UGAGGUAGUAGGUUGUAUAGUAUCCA; higher = faster piRNA-guided slicing of the target
statedConditions: auxiliary factor: 500 nM mouse GTSF1
Classification by pre-steady-state target cleavage rate follows these ranges: bin 1 = under 0.01, bin 2 = from 0.01 up to 0.1, bin 3 = 0.1 and over

| recordSequence | experimentalSystem | labelClass |
| --- | --- | --- |
| GGAGACCUAUGAUAUGAACGAACUACCUCA | MILI (PIWIL2) piRISC loaded with piRNA #1 (26 nt) | bin 1 |
| GGAGACCAUACUAUACAACCUUCUACCACA | MILI (PIWIL2) piRISC loaded with piRNA #1 (26 nt) | bin 1 |
| GGAGUGGAUACUAUACAACGUACUACCUGA | MILI (PIWIL2) piRISC loaded with piRNA #1 (26 nt) | bin 2 |
| GGAGACCUAUGAUAUGUACCUACUACCUGA | MILI (PIWIL2) piRISC loaded with piRNA #1 (26 nt) | bin 1 |
| GGAGAGGAUACUAUACAACCUACUACCUGA | MILI (PIWIL2) piRISC loaded with piRNA #1 (26 nt) | bin 2 |
| GGAGACCAUACAAUACAUCCUACUACCUCA | MILI (PIWIL2) piRISC loaded with piRNA #1 (26 nt) | bin 3 |
| GGAGACCUAACUAUAGAACCUACUACGUCA | MILI (PIWIL2) piRISC loaded with piRNA #1 (26 nt) | bin 2 |
| GGAGAGGAUACUAUACAACCUACUACUCUCA | MILI (PIWIL2) piRISC loaded with piRNA #1 (26 nt) | bin 3 |
| GGAGACCUAUCUAUACAACCUACUACUCUCA | MILI (PIWIL2) piRISC loaded with piRNA #1 (26 nt) | bin 3 |
| GGAGACCUAUCUAUUCAACCUUCUACCUCA | MILI (PIWIL2) piRISC loaded with piRNA #1 (26 nt) | bin 1 |
| GGAGACCUAUGAUAACAACCUACUUCCUCA | MILI (PIWIL2) piRISC loaded with piRNA #1 (26 nt) | bin 1 |
| GGAGACCUAACUAAACAACCUACUACGUCA | MILI (PIWIL2) piRISC loaded with piRNA #1 (26 nt) | bin 2 |
| GGAGACCUAUCUAUCACAACCUACUACCUCA | MILI (PIWIL2) piRISC loaded with piRNA #1 (26 nt) | bin 2 |
| GGAGACGAUACUAUACAACCUAGUUCCUCA | MILI (PIWIL2) piRISC loaded with piRNA #1 (26 nt) | bin 1 |
| GGAGAGGAUAGUAUACAACCUUCUACCUCA | MILI (PIWIL2) piRISC loaded with piRNA #1 (26 nt) | bin 1 |
| GGAGACCUAUGAUAUGUACCUACUACCUGCA | MILI (PIWIL2) piRISC loaded with piRNA #1 (26 nt) | bin 1 |
| GGAGACCUAACUAUACUACCUUCUACCUCA | MILI (PIWIL2) piRISC loaded with piRNA #1 (26 nt) | bin 1 |
| GGAGACCUAACUAUACAACCUACUCACCUCA | MILI (PIWIL2) piRISC loaded with piRNA #1 (26 nt) | bin 3 |
| GGAGACCUAUCUUUACUACCUACUACCUCA | MILI (PIWIL2) piRISC loaded with piRNA #1 (26 nt) | bin 2 |
| GGAGACCUAACUAUAGAAGCUACUACCUCA | MILI (PIWIL2) piRISC loaded with piRNA #1 (26 nt) | bin 3 |
| GGAGACCUAUGUAUACUACCUACUACCACA | MILI (PIWIL2) piRISC loaded with piRNA #1 (26 nt) | bin 2 |
| GGAGACCUAUGUAUACAACCUACUAGCACA | MILI (PIWIL2) piRISC loaded with piRNA #1 (26 nt) | bin 1 |
| GGAGUGGAUACUAUAGAACCAACUACCUCA | MILI (PIWIL2) piRISC loaded with piRNA #1 (26 nt) | bin 1 |
| GGAGACCUAUCUAUACAACCUAUCUACCUCA | MILI (PIWIL2) piRISC loaded with piRNA #1 (26 nt) | bin 2 |
| GGAGACGAUAGUAUACAACCUACUACCUGA | MILI (PIWIL2) piRISC loaded with piRNA #1 (26 nt) | bin 3 |
| GGAGACCUAUGAUAUGUUCCUACUACACUCA | MILI (PIWIL2) piRISC loaded with piRNA #1 (26 nt) | bin 1 |
| GGAGUGGGAUACUAUACAACCUACUACCUCA | MILI (PIWIL2) piRISC loaded with piRNA #1 (26 nt) | bin 3 |
| GGAGACGAUACUAUAGAACCUACUAGCUCA | MILI (PIWIL2) piRISC loaded with piRNA #1 (26 nt) | bin 2 |
| GGAGACCUAUGAUAACAACCUACUACCUUCA | MILI (PIWIL2) piRISC loaded with piRNA #1 (26 nt) | bin 1 |
| GGAGACCAUACUAUACAACCUACUACAUCA | MILI (PIWIL2) piRISC loaded with piRNA #1 (26 nt) | bin 2 |
| GGAGAGGAUACUAUACAACCUACUACCCUCA | MILI (PIWIL2) piRISC loaded with piRNA #1 (26 nt) | bin 3 |
| GGAGACCUUACUAUACAACCUACAUGGAGA [g8:g22:cont:t1A] | MILI (PIWIL2) piRISC loaded with piRNA #1 (26 nt) | bin 1 |
| GGAGACGAUUCUAUACAACCUACUAGCUCA | MILI (PIWIL2) piRISC loaded with piRNA #1 (26 nt) | bin 3 |
| GGAGACGAUACAUACAACCUACUACCUCA | MILI (PIWIL2) piRISC loaded with piRNA #1 (26 nt) | bin 3 |
| GGAGAGGAUACUAUACAACCUAGCUACCUCA | MILI (PIWIL2) piRISC loaded with piRNA #1 (26 nt) | bin 2 |
| GGAGACCUUACUAUACAACCUACUAUCCUCA | MILI (PIWIL2) piRISC loaded with piRNA #1 (26 nt) | bin 3 |

* * *

Tested on: EfPiwi piRISC loaded with piRNA #1 (26 nt)
protocol: pre-steady-state target cleavage rate (min^-1); auxiliary factor: 500 nM Ephydatia muelleri Gtsf1; guide: piRNA #1 5'p-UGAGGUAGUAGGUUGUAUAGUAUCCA; higher = faster piRNA-guided slicing of the target

| recordSequence | pre-steady-state target cleavage rate |
| --- | --- |
| GGAGACCAUACUAUACAUCCUACUACCUGA | 0.00312 |
| GGAGACGAUACUAUACAACCUACUACCUA | 0.104 |
| GGAGUGGAUACUAUACAUCCUACUACCUGA | 0.00497 |
| GGAGAGGAUACUAUACAUCGUACUACCUCA | 0.00364 |
| GGAGUGGAUACUAUACAACCUACUGCCUCA | 0.00835 |
| GGAGACCUAUCUAUACAAGCUACUACGUCA | 0.00274 |
| GGAGACCUACCUAUACAACCUACUACCUCA | 0.0239 |
| GGAGAGGAUACUAUACCACCUACUACCUCA | 0.00648 |
| GGAGACCAAACUAUUCAACCUACUACCUCA | 0.00445 |

* * *

Test system: EfPiwi piRISC loaded with piRNA #1 (26 nt)
protocol: pre-steady-state target cleavage rate (min^-1); auxiliary factor: 500 nM Ephydatia muelleri Gtsf1; guide: piRNA #1 5'p-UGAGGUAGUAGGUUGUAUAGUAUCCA; MIWI and MILI are mouse PIWI proteins and EfPiwi is from a freshwater sponge; tags in brackets are library labels; higher = faster piRNA-guided slicing of the target
Property: pre-steady-state target cleavage rate; scope: individual sequences
readout: pre-steady-state target cleavage rate

| recordSequence | readingQualifier | recordedResult |
| --- | --- | --- |
| GGAGACCUAUGAAUACAACCUACAUGCUCA | < | 0.0001 |
| GGAGAGGAUACUAUACAACCUACAUACCUCA | = | 0.00353 |
| GGAGACCUAUCUACACAACCUACUACCUCA | = | 0.00358 |
| GGAGACCUAUCUAUACAUCCUACUACCUCA | = | 0.00738 |
| GGAGAGGAUACUAUACAACCUUGUACCUCA | = | 0.00294 |
| GGAGUCCUUACUAUACAACCUACUACCUCA | = | 0.0555 |
| GGAGACGUUACUAUACAACGUACUACCUCA | = | 0.00362 |
| GGAGACGAUACUAUACAUCCUACUACGUCA | = | 0.00318 |
| GGAGAGGAUAGUAUACAACCUACUACCACA | = | 0.00287 |
| GGAGACGAUACUAUACAAGCUACAACCUCA | = | 0.00442 |
| GGAGUGGAUACUAUACAAGCUACUACCUGA | = | 0.00454 |
| GGAGACGAUAGAUUACAACCUACUACCUCA | = | 0.00662 |
| GGAGACCUAUCUAUACAACGUACUACCACA | = | 0.00343 |
| GGAGUGGAUACUAUACAACCUAUACCUCA | = | 0.00334 |
| GGAGAGGAUACUAUACAACCUCUACCUCA | = | 0.00619 |
| GGAGACCAUUGAAUACAACCUACUACCUCA | = | 0.00581 |
| GGAGAGGAUACUAUACAACCAACUAGCUCA | = | 0.00313 |
| GGAGACGAAACUAUACAACCUUCUACCUCA | = | 0.00751 |
| GGAGACCAUCACUAUACAACCUACUACCUCA | = | 0.0254 |

Numbers sourced from the supplement of paper PMC10338343.
